- assayed_system: T1, CTLA4 on the cells of the reporter gene bioassay (human, UniProt P16410 36-223)
- T1 sequence (looked up): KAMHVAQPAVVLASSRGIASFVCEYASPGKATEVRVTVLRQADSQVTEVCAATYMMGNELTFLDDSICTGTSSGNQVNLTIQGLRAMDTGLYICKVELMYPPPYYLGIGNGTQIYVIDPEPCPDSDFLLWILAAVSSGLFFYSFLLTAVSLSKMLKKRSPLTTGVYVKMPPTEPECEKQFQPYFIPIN
- protocol_details: cell-based or functional assay
recorded_endpoint: Relative Potency (%)

{"binder": "Tremelimumab incubated in PBS at 37° C., week 4 (antibody, human IgG2, kappa, V domains shown, Asn-30 deamidated in 37.7% (peptide mapping)) VH: QVQLVESGGGVVQPGRSLRLSCAASGFTFSSYGMHWVRQAPGKGLEWVAVIWYDGSNKYYADSVKGRFTISRDNSKNTLYLQMNSLRAEDTAVYYCARDPRGATLYYYYYGMDVWGQGTTVTVSS VL: DIQMTQSPSSLSASVGDRVTITCRASQSINSYLDWYQQKPGKAPKLLIYAASSLQSGVPSRFSGSGSGTDFTLTISSLQPEDFATYYCQQYYSTPFTFGPGTKVEIKR", "result_value": "76%"}
{"binder": "Tremelimumab incubated in PBS at 37° C., week 0 (antibody, human IgG2, kappa, V domains shown, Asn-30 deamidated in 2.2% (peptide mapping)) VH: QVQLVESGGGVVQPGRSLRLSCAASGFTFSSYGMHWVRQAPGKGLEWVAVIWYDGSNKYYADSVKGRFTISRDNSKNTLYLQMNSLRAEDTAVYYCARDPRGATLYYYYYGMDVWGQGTTVTVSS VL: DIQMTQSPSSLSASVGDRVTITCRASQSINSYLDWYQQKPGKAPKLLIYAASSLQSGVPSRFSGSGSGTDFTLTISSLQPEDFATYYCQQYYSTPFTFGPGTKVEIKR", "result_value": "92%"}
{"binder": "Tremelimumab incubated in human serum at 37° C., week 1 (antibody, human IgG2, kappa, V domains shown, Asn-30 deamidated in 11.1% (peptide mapping)) VH: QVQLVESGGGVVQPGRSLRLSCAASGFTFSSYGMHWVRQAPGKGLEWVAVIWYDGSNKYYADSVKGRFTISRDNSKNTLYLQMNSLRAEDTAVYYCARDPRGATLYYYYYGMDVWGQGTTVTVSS VL: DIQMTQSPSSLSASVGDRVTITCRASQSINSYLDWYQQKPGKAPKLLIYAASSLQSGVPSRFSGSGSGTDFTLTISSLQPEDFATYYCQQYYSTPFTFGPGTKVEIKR", "result_value": "98%"}
{"binder": "Tremelimumab incubated in human serum at 37° C., week 5 (antibody, human IgG2, kappa, V domains shown, Asn-30 deamidated in 37.7% (peptide mapping)) VH: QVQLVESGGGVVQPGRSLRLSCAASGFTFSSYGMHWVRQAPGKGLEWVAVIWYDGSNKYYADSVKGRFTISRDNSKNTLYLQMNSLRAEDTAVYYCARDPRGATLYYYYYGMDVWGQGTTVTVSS VL: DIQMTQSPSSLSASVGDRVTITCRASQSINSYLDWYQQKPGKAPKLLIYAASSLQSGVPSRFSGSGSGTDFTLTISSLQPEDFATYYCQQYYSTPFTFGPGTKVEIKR", "result_value": "80%"}
{"binder": "Tremelimumab incubated in PBS at 37° C., week 5 (antibody, human IgG2, kappa, V domains shown, Asn-30 deamidated in 44.7% (peptide mapping)) VH: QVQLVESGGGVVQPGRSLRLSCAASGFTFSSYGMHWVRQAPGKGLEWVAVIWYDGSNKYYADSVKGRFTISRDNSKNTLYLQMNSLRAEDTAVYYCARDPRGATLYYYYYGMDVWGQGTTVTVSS VL: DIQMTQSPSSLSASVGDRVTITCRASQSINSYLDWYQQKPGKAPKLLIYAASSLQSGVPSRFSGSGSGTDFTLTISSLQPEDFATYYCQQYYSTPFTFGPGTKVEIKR", "result_value": "76%"}
{"binder": "Tremelimumab incubated in PBS at 37° C., week 3 (antibody, human IgG2, kappa, V domains shown, Asn-30 deamidated in 27.0% (peptide mapping)) VH: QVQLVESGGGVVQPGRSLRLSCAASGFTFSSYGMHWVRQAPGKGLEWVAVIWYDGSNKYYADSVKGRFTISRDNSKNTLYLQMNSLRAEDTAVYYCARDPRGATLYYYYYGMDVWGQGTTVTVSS VL: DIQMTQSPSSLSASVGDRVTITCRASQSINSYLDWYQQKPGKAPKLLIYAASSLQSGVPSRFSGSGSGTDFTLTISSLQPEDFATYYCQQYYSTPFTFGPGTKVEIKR", "result_value": "93%"}
